Some compounds, each annotated with its measured inhibition.
Molecular target: Serine/threonine-protein kinase SIK1 (Homo sapiens);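 further: reported as mean inhibition, part of the GSK PKIS screen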
Details: at 0.1 µM

# compound_structure_string, output_unit, inhibition
rows = [
    ("Cc1ccc2c(-c3ccnc(Nc4cccc(C(F)(F)F)c4)n3)c(-c3ccccc3)nn2n1", "%", 6.3),
    ("ON=C1CCc2cc(-c3nc(C4CCNCC4)[nH]c3-c3ccncc3)ccc21", "%", -0.24),
    ("COC(=O)Nc1nc2cc(Oc3ccc(NC(=O)Nc4cccc(Br)c4)cc3)ccc2[nH]1", "%", 7.8),
    ("Cc1nc(-c2ccccc2)n2nc(NCCCN3CCOCC3)ncc12", "%", 3.53),
    ("COc1cc(Nc2nccc(-c3cnn4ncccc34)n2)cc(OC)c1", "%", 8.12),
    ("Nc1nccc(C#Cc2cncnc2Nc2ccc(OCc3cccc(F)c3)c(Cl)c2)n1", "%", 5.03),
    ("c1ccc(Cc2nc3ccc(Nc4ncnc5ccccc45)cc3[nH]2)cc1", "%", 3.13),
    ("[O-][S+]1CCN(Cc2ccc(-c3ccc4ncnc(Nc5ccc(OCc6ccccc6)c(Cl)c5)c4c3)o2)CC1", "%", 0.43),
    ("O=C1Nc2ccccc2/C1=C/Nc1ccc2[nH]c(=O)[nH]c2c1", "%", 3.92),
    ("Nc1nccc(-c2c(-c3ccc(F)cc3)nn3cc(C(F)(F)F)ccc23)n1", "%", -0.43),
    ("NS(=O)(=O)c1ccc(Nc2cc(-c3cccc(O)c3)n[nH]2)cc1", "%", 6.53),
]
